Origin of measurements: ChEMBL document CHEMBL1132568

Kindly state ED25 for each of the entries shown.
tested on: Canis familiaris; assay: In vivo hypotensive effect(DBP) in dog after intravenous administration.; format: functional, Canis lupus familiaris
I only need the number, in mg/kg, no unit after it.

Query: ED25; subject: COc1cc2nc(N3CCN(C(=O)COc4c(OC)cccc4C(C)C)CC3)nc(N)c2cc1OC
0.183

For COc1cc2nc(N3CCN(C(=O)CC(=O)c4ccccc4)CC3)nc(N)c2cc1OC then?
0.0081

For COc1cc2nc(N3CCN(C(=O)CC(c4ccccc4)c4ccccc4)CC3)nc(N)c2cc1OC then?
0.023

For COc1cc2nc(N3CCN(C(=O)CCC(=O)c4ccccc4)CC3)nc(N)c2cc1OC then?
0.132
